System: Coxiella burnetii
experiment: Antimicrobial activity against compound-susceptible Coxiella burnetii isolate CP6 obtained from patient with acute Q fever infected in african green monkey Vero cells after 24 hrs by shell vial assay
Assay type: functional
condition.label: isolate CP6, 24 h
Each entry below carries its reported MIC.

>  <molecule>
N[C@@H]1[C@H]2CN(c3nc4c(cc3F)c(=O)c(C(=O)O)cn4-c3ccc(F)cc3F)C[C@@H]12

>  <MIC / µg/mL>
1

$$$$
>  <molecule>
O=C(O)c1cn(C2CC2)c2cc(N3CCNCC3)c(F)cc2c1=O

>  <MIC / µg/mL>
4

$$$$
>  <molecule>
CN(C)c1cc(NC(=O)CNC(C)(C)C)c(O)c2c1C[C@H]1C[C@H]3[C@H](N(C)C)C(O)=C(C(N)=O)C(=O)[C@@]3(O)C(O)=C1C2=O

>  <MIC / µg/mL>
0.25

$$$$
>  <molecule>
CC1COc2c(N3CCN(C)CC3)c(F)cc3c(=O)c(C(=O)O)cn1c23 (configuration not stated)

>  <MIC / µg/mL>
1

$$$$
>  <molecule>
CC(=O)NC[C@H]1CN(c2ccc(N3CCOCC3)c(F)c2)C(=O)O1

>  <MIC / µg/mL>
2

$$$$
>  <molecule>
C[C@H]1c2cccc(O)c2C(=O)C2=C(O)[C@]3(O)C(=O)C(C(N)=O)=C(O)[C@@H](N(C)C)[C@@H]3[C@@H](O)[C@@H]21.O

>  <MIC / µg/mL>
1

$$$$
>  <molecule>
CC[C@H]1OC(=O)[C@H](C)[C@@H](O[C@H]2C[C@@](C)(OC)[C@@H](O)[C@H](C)O2)[C@H](C)[C@@H](O[C@@H]2O[C@H](C)C[C@H](N(C)C)[C@H]2O)[C@](C)(OC)C[C@@H](C)C(=O)[C@H](C)[C@@H](O)[C@]1(C)O

>  <MIC / µg/mL>
2

$$$$

###

System: Coxiella burnetii
experiment: Antimicrobial activity against compound-intermediate susceptible Coxiella burnetii isolate CP1 obtained from patient with acute Q fever infected in african green monkey Vero cells after 24 hrs by shell vial assay
Assay type: functional
condition.label: isolate CP1, 24 h
Each entry below carries its reported MIC.

>  <molecule>
C[C@H]1c2cccc(O)c2C(=O)C2=C(O)[C@]3(O)C(=O)C(C(N)=O)=C(O)[C@@H](N(C)C)[C@@H]3[C@@H](O)[C@@H]21.O

>  <MIC, µg/mL>
1

$$$$
>  <molecule>
CC[C@H]1OC(=O)[C@H](C)[C@@H](O[C@H]2C[C@@](C)(OC)[C@@H](O)[C@H](C)O2)[C@H](C)[C@@H](O[C@@H]2O[C@H](C)C[C@H](N(C)C)[C@H]2O)[C@](C)(OC)C[C@@H](C)C(=O)[C@H](C)[C@@H](O)[C@]1(C)O

>  <MIC, µg/mL>
2

$$$$
>  <molecule>
N[C@@H]1[C@H]2CN(c3nc4c(cc3F)c(=O)c(C(=O)O)cn4-c3ccc(F)cc3F)C[C@@H]12

>  <MIC, µg/mL>
1

$$$$
>  <molecule>
CC1COc2c(N3CCN(C)CC3)c(F)cc3c(=O)c(C(=O)O)cn1c23 (configuration not stated)

>  <MIC, µg/mL>
1

$$$$
>  <molecule>
CN(C)c1cc(NC(=O)CNC(C)(C)C)c(O)c2c1C[C@H]1C[C@H]3[C@H](N(C)C)C(O)=C(C(N)=O)C(=O)[C@@]3(O)C(O)=C1C2=O

>  <MIC, µg/mL>
0.25

$$$$
>  <molecule>
O=C(O)c1cn(C2CC2)c2cc(N3CCNCC3)c(F)cc2c1=O

>  <MIC, µg/mL>
4

$$$$
>  <molecule>
CC(=O)NC[C@H]1CN(c2ccc(N3CCOCC3)c(F)c2)C(=O)O1

>  <MIC, µg/mL>
2

$$$$
